Assay: chemical genetic growth profiling, strain panel (AID 1159580);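 also: tested at 20 µM; growth read once vehicle control cultures reached saturation at 30 °C; 1 = growth at the plate median or of vehicle wells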
Settings: S. cerevisiae deletion strains, growth OD, locus YIL073C, strain SPO22, hits give low values
Among all 5,500 compounds or so, about 2,000 (36%) were called active. Roughly 18% stayed inconclusive and do not appear here. The list shows a part of the results.
Label met when normalized growth < 0.9; otherwise not met.

Exercise: Does `O=C(/C=C/C=C/c1ccc2c(c1)OCO2)N1CCCCC1` have normalized growth strictly under 0.9?
Solution: met

Exercise: Consider the compound `C/C=C(/C(=C/C)c1ccc(O)cc1)c1ccc(O)cc1` . Is its normalized growth strictly less than 0.9?
Solution: not met

Exercise: Given `COc1ccc(-c2coc3c(OC)c(OC)ccc3c2=O)cc1` , is recorded normalized growth strictly lower than 0.9?
Solution: not met

Exercise: For this compound, is normalized growth lower than 0.9? CC1(O)/C=C/C=C(\CO)C2CC(C)(C)C2(O)CC1 (stereo not drawn)
Solution: not met

Exercise: Determine if `COc1ccc2c(c1)OC[C@@H](Cc1ccc(OC)c(OC)c1)[C@@H]2O` shows normalized growth strictly lower than 0.9.
Solution: not met

Exercise: State whether 0.9 exceeds normalized growth recorded for C[N+](C)(C)CCOP(=O)([O-])OP(=O)(O)OC[C@H]1OC(n2ccc(N)nc2=O)[C@H](O)[C@@H]1O (stereo partly drawn) .
Solution: not met

Exercise: Is the reported normalized growth for CCC1(C)CC(=O)NC1=O (stereo not drawn) strictly below 0.9?
Solution: not met

Exercise: Is normalized growth of CN1CCc2cc3c(cc2C1O)OCO3 (stereo not drawn) strictly below 0.9?
Solution: not met

Exercise: Determine if `COC(=O)c1c(Cl)c(Cl)c(C(=O)OC)c(Cl)c1Cl` shows normalized growth strictly lower than 0.9.
Solution: not met

Exercise: # TODO verify normalized growth < 0.9 strictly for this compound: `CCc1nc(N)nc(N)c1-c1ccc(Cl)cc1`
Solution: not met

Exercise: Problem: For the compound `COc1ccc(-c2coc3c(O)c(OC)ccc3c2=O)cc1` , is normalized growth under 0.9?
Solution: met

Exercise: State whether 0.9 exceeds normalized growth recorded for `COc1cc(OC)c2c(c1)O[C@H](c1ccc(OC)c(OC)c1)[C@@H](O)C2` .
Solution: not met

Exercise: Determine if `COC(=O)[C@H]1[C@H]2C[C@H]3c4[nH]c5ccccc5c4CCN3C[C@H]2CC[C@@H]1O` shows normalized growth strictly lower than 0.9.
Solution: not met

Exercise: Is normalized growth strictly under 0.9 for the entry `S=C=NCc1ccccc1` ?
Solution: met

Exercise: # check: normalized growth < 0.9 for O=C(O)C1C(O)CCC2CN3CCc4c([nH]c5ccccc45)C3CC21 (stereo not drawn)
Solution: not met

Exercise: Please state whether normalized growth is below 0.9 for `O=C(O)c1cc(=O)c2cc(Cl)ccc2[nH]1`
Solution: not met

Exercise: Lab log: compare recorded normalized growth with 0.9; is it strictly lower for CCCCCC(C)N (stereo not drawn) ?
Solution: not met

###

Assay: chemical genetic growth profiling, strain panel (AID 1159580);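 also: tested at 20 µM; growth read once vehicle control cultures reached saturation at 30 °C; 1 = growth at the plate median or of vehicle wells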
Details: S. cerevisiae deletion strains, growth OD, locus YMR307W, strain GAS1, hits give low values
Screen size: about 5,500 compounds; about 2,000 (36%) were called active. Not shown: some 18% with an inconclusive outcome. Some of the results follow.
Response field label takes criterion met when normalized growth is strictly below 0.9 and criterion not met in all other cases.

Exercise: Lab note: confirm whether the reported normalized growth for this compound is below 0.9, equality not counting. compound: `CC(C)[C@@]1(NC(=O)[C@@H]2C=C3c4cccc5[nH]cc(c45)C[C@H]3N(C)C2)O[C@@]2(O)[C@@H]3CCCN3C(=O)[C@H](Cc3ccccc3)N2C1=O`
Solution: criterion not met

Exercise: Does the reported normalized growth of the following compound sit strictly below 0.9? `COc1ccc(-c2coc3c(OC)c(OC)ccc3c2=O)cc1`
Solution: criterion met

Exercise: Input `c1ccc(CC2=NCCN2)cc1` ; condition: normalized growth strictly below 0.9. Does it hold?
Solution: criterion not met

Exercise: Lab log: compare recorded normalized growth with 0.9; is it strictly lower for `O=C(c1ccccc1)C1CCN(c2ccc(C(F)(F)F)cc2[N+](=O)[O-])CC1` ?
Solution: criterion not met

Exercise: Answer whether the compound `CCCCCCCc1c(O)c2ccccc2[nH]c1=O` has normalized growth strictly less than 0.9
Solution: criterion not met

Exercise: Decide: normalized growth of CC(=O)O[C@@](C)(CCC=C(C)C)C1CC=C(C)CC1 (stereo partly specified) strictly below 0.9?
Solution: criterion not met

Exercise: Hello, I'm reviewing records and need to know if normalized growth of `COc1ccc(-c2coc3c(O)c(OC)ccc3c2=O)cc1` is below 0.9. Could you check?
Solution: criterion met

Exercise: Answer whether the compound `COC(=O)c1c(C)[nH]c(C)c1C(C)=O` has normalized growth strictly less than 0.9
Solution: criterion not met

Exercise: Is normalized growth of `c1ccc(CN(CC2=NCCN2)c2ccccc2)cc1` strictly below 0.9?
Solution: criterion not met

Exercise: Please state whether normalized growth is below 0.9 for `COc1ccc(-c2coc3c(OC)c(O)ccc3c2=O)cc1`
Solution: criterion met

###

Experiment: chemical genetic growth profiling, strain panel (AID 1159580);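 also: tested at 20 µM; growth read once vehicle control cultures reached saturation at 30 °C; 1 = growth at the plate median or of vehicle wells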
Conditions: S. cerevisiae deletion strains, growth OD, locus YPL078C, strain atp4, hits give low values
Among all 5,500 compounds or so, about 2,000 (36%) were called active. Inconclusive results (about 18%) are left out. Some of the results follow.
Record form. Attribute: normalized growth. Fill in for each entry.
API doc: respond with a numeric literal and nothing else, no unit.

Exercise: For NC[C@@H]1O[C@H](O[C@@H]2[C@@H](CO)OC(O[C@@H]3[C@@H](O)[C@H](N)C[C@H](N)[C@H]3OC3O[C@H](CN)[C@@H](O)[C@H](O)[C@H]3N)[C@@H]2O)[C@H](N)[C@@H](O)[C@@H]1O (stereo partly drawn) , what is its reported normalized growth?
Solution: 1.01

Exercise: Returns the measured normalized growth for the input compound. Input: `O=c1ccc2ccccc2o1`
Solution: 1.03

Exercise: Quick one: normalized growth for `COc1cc(O)c2c(=O)cc(C)oc2c1CC=C(C)C` ?
Solution: 0.959

Exercise: Quick one: normalized growth for `O=c1ccc2cc(O)c(O)cc2o1` ?
Solution: 0.986

Exercise: Return reported normalized growth; argument: `CCc1nc(N)nc(N)c1-c1ccc(Cl)cc1`
Solution: 0.959

Exercise: Please look up its normalized growth: `Cc1cc(=O)c2c(O)c(C)c(O)cc2o1`
Solution: 1.03

Exercise: May I ask what normalized growth has been recorded for `C1CCc2nnnn2CC1` ?
Solution: 1.01

Exercise: Would you kindly share the measured normalized growth for NCC1CCCCC1CC(=O)O (stereo not drawn) ?
Solution: 1.05

Exercise: Query (compound): `COc1c(O)cc2oc3cc(O)c(CC=C(C)C)c(O)c3c(=O)c2c1CC=C(C)C` ; field requested: normalized growth
Solution: 0.991

Exercise: Dear colleague, I am looking for the recorded normalized growth of the following compound: `S=C=NCc1ccccc1`
Solution: 0.0881

Exercise: Sample CNC1(C)C2CCC(C2)C1(C)C (stereo not drawn) — what was its normalized growth?
Solution: 0.983

Exercise: Entry under review: `CCOC(=O)c1ncn2c1CN(C)C(=O)c1cc(F)ccc1-2` . Reported normalized growth?
Solution: 1

Exercise: Param item = `N#Cc1c(Cl)c(Cl)c(Cl)c(C#N)c1Cl` ; retrieve measured normalized growth.
Solution: 0.081

###

Assay: chemical genetic growth profiling, strain panel (AID 1159580);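 also: tested at 20 µM; growth read once vehicle control cultures reached saturation at 30 °C; 1 = growth at the plate median or of vehicle wells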
Settings: S. cerevisiae deletion strains, growth OD, locus YDR162C, strain NBP2, hits give low values
Screen size: about 5,500 compounds; about 2,000 (36%) were called active. Not shown: some 18% with an inconclusive outcome. The list shows a part of the results.
For each entry below, report its normalized growth value.
# output: bare number, no unit

Exercise: For the compound `COc1cc(O)c(C(=O)c2ccccc2)cc1O` , what normalized growth is on record?
Solution: 1.02

Exercise: Name the recorded normalized growth for `O=C1C[C@@H](c2ccccc2)Oc2cc(O)cc(O)c21` .
Solution: 0.859

Exercise: Param item = `COc1ccc2cc1Oc1ccc(cc1)C[C@H]1c3cc(c(OC)cc3CCN1C)Oc1c(OC)c(OC)cc3c1[C@H](C2)N(C)CC3` ; retrieve measured normalized growth.
Solution: 0.974

Exercise: Find the recorded normalized growth belonging to `NC(N)=Nc1nc(CSCCC(N)=NS(N)(=O)=O)cs1` and report it.
Solution: 1.01

Exercise: Entry under review: COc1cc(OC)c2c(c1)OC(c1ccccc1)CC2=O (configuration not stated) . Reported normalized growth?
Solution: 0.987

Exercise: May I ask what normalized growth has been recorded for `COc1ccc(C(=O)c2ccccc2O)c(O)c1` ?
Solution: 0.926

Exercise: # lookup: normalized growth of `CC(C)=CCc1c(O)cc2oc(C)cc(=O)c2c1O`
Solution: 0.903

Exercise: Which normalized growth value belongs to `O=C1C[C@@H](c2ccc(O)cc2)Oc2cc(O)cc(O)c21` ?
Solution: 1.01

Exercise: Value lookup for normalized growth; key = COc1ccc2c(c1)C1(C)CCC(=O)CC1CC2 (configuration not stated)
Solution: 1

Exercise: // query normalized growth value for entry `COc1ccc(C(=O)c2ccccc2)c(O)c1`
Solution: 0.671

Exercise: I would be grateful if you could share the reported normalized growth for `Cc1ccc2c(c1)CC[C@H]1CC(=O)CC[C@]21C` .
Solution: 0.974

Exercise: Endpoint output: normalized growth of O=C1CC(c2ccc(O)cc2)Oc2ccccc21 (configuration not stated) . Value?
Solution: 0.489

Each recorded value in this set is attributed to PubChem BioAssay AID1159580.
